Target desc: Gal(b1-4)GalNAc(b1-3)[Fuc(a1-2)]Gal(b1-4)GlcNAc
Protocol: glycan array binding signal (z-score within array); higher = stronger binding
Condition label: glycan notation: IUPAC condensed, linker removed
This excerpt belongs to a sample that is enriched for the strongest signals.
Assay readout: glycan array binding signal (z-score)
Numbers only.

Ask: Any idea what its glycan array binding signal (z-score) is? The binder is Apa (Mycobacterium tuberculosis), Rv1860 (protein) MHQVDPNLTRRKGRLAALAIAAMASASLVTVAVPATANADPEPAPPVPTTAASPPSTAAAPPAPATPVAPPPPAAANTPNAQPGDPNAAPPPADPNAPPPPVIAPNAPQPVRIDNPVGGFSFALPAGWVESDAAHFDYGSALLSKTTGDPPFPGQPPPVANDTRIVLGRLDQKLYASAEATDSKAAARLGSDMGEFYMPYPGTRINQETVSLDANGVSGSASYYEVKFSDPSKPNGQIWTGVIGSPAANAPDAGPPQRWFVVWLGTANNPVDKGAAKALAESIRPLVAPPPAPAPAPAEPAPAPAPAGEVAPTPTTPTPQRTLPA
Result: 5.04

Source of measurements: the supplement of paper PMC8728848
